src = the supplement of paper PMC10065799

- System: c-Src;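 note: 11-residue human phosphosite peptides and single-mutation variants displayed on the E. coli surface, counted by deep sequencing, each peptide's frequency after selection divided by its frequency in the unselected input library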;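 note: frequency after pTyr selection over input frequency; kinase dosed for 20-30% of maximal phosphorylation in three min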
- procedure-summary: phosphorylation enrichment, bacterial display (enrichment ratio); higher = better substrate or ligand; peptides without Tyr show the background
measured-endpoint: phosphorylation enrichment
Give the figure by itself; no unit, no explanation.

SPFMLYQFLKQ [RPAP3_Y567_D564Y_YF]; 0.867

Would you kindly look at the next entry?
Name the recorded phosphorylation enrichment of the sequence listed here: YRTGHYLCNAC [GATA1_Y223_D218Y]
0.31

====

- target-or-test-system: Grb2 SH2 (UniProt P62993)
- Sequence (P62993 whole entry, looked up): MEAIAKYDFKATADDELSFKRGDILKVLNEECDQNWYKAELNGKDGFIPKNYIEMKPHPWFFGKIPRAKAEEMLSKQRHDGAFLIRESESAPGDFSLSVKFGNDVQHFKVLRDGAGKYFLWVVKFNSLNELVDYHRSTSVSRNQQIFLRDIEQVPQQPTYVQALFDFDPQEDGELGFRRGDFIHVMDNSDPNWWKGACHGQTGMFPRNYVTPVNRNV
- procedure-summary: SH2 binding enrichment of the phosphorylated peptide, bacterial display (enrichment ratio); higher = better substrate or ligand; peptides without Tyr show the background
measured-endpoint: SH2 binding enrichment
Give the figure by itself; no unit, no explanation.

GLIPAYHWVIM [NMNAT1_Y64_R66W]; 0.878

Name the recorded SH2 binding enrichment of the sequence listed here: GEETDYTPVWC [UROD_Y30]
0.864

Name the recorded SH2 binding enrichment of the sequence listed here: CKLFQYFLDHL [ATRX_Y1849_YF]
1.57
